System under test: T1, IL-18 receptor (IL-18Rα and IL-18Rβ) (UniProt Q13478 19-541; O95256 20-599, limits assumed)
T1 sequence (looked up) 1: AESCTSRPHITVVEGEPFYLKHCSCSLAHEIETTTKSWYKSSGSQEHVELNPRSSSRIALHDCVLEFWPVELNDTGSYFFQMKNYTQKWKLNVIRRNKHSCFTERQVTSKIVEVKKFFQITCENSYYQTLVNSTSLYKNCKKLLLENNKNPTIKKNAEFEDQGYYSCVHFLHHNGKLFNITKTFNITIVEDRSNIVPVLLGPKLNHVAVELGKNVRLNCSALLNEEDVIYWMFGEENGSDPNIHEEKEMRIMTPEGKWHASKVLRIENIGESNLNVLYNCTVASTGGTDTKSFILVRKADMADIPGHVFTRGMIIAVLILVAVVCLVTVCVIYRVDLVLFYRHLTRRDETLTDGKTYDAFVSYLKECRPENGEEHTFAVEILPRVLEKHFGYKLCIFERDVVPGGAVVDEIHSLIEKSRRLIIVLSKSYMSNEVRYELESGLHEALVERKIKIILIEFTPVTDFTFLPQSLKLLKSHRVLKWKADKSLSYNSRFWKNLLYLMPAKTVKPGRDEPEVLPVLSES
T1 sequence (looked up) 2: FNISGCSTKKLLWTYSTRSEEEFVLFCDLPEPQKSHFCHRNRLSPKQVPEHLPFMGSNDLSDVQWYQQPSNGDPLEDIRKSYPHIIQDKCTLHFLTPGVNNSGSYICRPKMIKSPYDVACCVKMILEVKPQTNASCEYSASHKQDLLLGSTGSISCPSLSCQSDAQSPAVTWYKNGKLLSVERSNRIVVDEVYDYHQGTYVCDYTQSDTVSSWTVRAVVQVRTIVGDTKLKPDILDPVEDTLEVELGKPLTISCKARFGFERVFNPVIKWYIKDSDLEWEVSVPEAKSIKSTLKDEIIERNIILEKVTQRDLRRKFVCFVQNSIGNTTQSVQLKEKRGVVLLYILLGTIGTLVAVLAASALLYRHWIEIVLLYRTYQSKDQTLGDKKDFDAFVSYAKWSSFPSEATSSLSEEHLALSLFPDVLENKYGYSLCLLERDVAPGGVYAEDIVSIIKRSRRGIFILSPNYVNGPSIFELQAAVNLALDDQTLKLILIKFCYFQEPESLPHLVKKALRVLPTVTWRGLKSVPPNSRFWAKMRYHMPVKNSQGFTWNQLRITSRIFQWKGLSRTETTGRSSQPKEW
Measurement notes: cell-based or functional assay
Measured parameter: EC50 (pM) - BP, HEK-blue re-screening
I'd appreciate it if you included the unit after the number.

Consider IL-18 variant G3P, E6K, D54Y, S55P, T63S, N91S, R104Q (ligand) YFPKLKSKLSVIRNLNDQVLFIDQGNRPLFEDMTDSDMRDNAPRTIFIISMYKYPQPRGMAVSISVKSEKISTLSSENKIISFKEMNPPDSIKDTKSDIIFFQQSVPGHDNKMQFESSSYEGYFLASEKERDLFKLILKKEDELGDRSIMFTVQNED . Its measured EC50 (pM) - BP, HEK-blue re-screening is 0.73 pM
